Experimental details: NCI Yeast Anticancer Drug Screen. Data for the mlh1 rad18 strain (AID 175)
Conditions: S. cerevisiae mlh1 rad18 strain growth inhibition; at 5.0 µM (retest, dose inferred, filed as 0.5); active compounds read high
Compounds without any hit were thinned out: in the full panel of roughly 79,000, 15% have a hit.
Measurement kind: growth inhibition (%)
Give just the number in %; leave the unit off.

[ask] Bench note: what growth inhibition did CCOc1c(N=Nc2ccc(Cl)cc2)c(-c2ccccc2)nn1C(=S)S show?
[reply] 2

Others:
[ask] // returns reported growth inhibition for input CCCCCCCCCCCCCCCCCc1nnc(N)o1
[reply] 6

[ask] Which growth inhibition value is on record for COc1ccc(C2=CC(=O)C=CC2=O)cc1 ?
[reply] 18

[ask] Recorded growth inhibition for O=S(=O)(C#Cc1ccccc1)c1ccccc1 , please?
[reply] 16

[ask] What does the data say about its growth inhibition? Entry: Clc1ccc(-c2csc(NCC3CCCO3)n2)cc1 (stereo not drawn)
[reply] 44

[ask] # input compound: [O-]c1c2cc(-[n+]3c(-c4ccccc4)cc(-c4ccccc4)cc3-c3ccccc3)cc1CO[C@@H](c1ccccc1)[C@H](c1ccccc1)OCc1cccc(n1)CO[C@@H](c1ccccc1)[C@H](c1ccccc1)OC2 ; wanted: its growth inhibition
[reply] 98

[ask] GET /values?readout=growth inhibition&item= O=C(Oc1c(Cl)c(Cl)c(Cl)c(Cl)c1Cl)c1ccc(Cl)cc1
[reply] 30

[ask] Suppose we examine the compound CC1=C[P+](c2ccccc2)(c2ccccc2)C=C(c2ccccc2)O1 ; what growth inhibition value has been reported?
[reply] 34

[ask] For N#CC(=C1C=CC(=NOC(=O)Nc2ccccc2)C=C1)c1ccccc1 , what is its reported growth inhibition?
[reply] 5

[ask] Return reported growth inhibition; argument: Cc1cc(Br)c(P(=O)(O)O)cc1[N+](=O)[O-]
[reply] 3

[ask] Which growth inhibition is reported for this compound? COC(=O)C1(Cc2ccc3c(c2)CCC3)Cc2ccc3c(c2C1O)CCC3 (stereo not drawn)
[reply] 4

[ask] growth inhibition for c1ccc(CC(Cc2ccccc2)c2cccnc2)cc1 ?
[reply] 25

[ask] GET /values?readout=growth inhibition&item= N#CC12CCCC(=O)N1c1ccccc1S2 (stereo not drawn)
[reply] 14

[ask] For c1ccc2c(O[Si](Oc3cccc4ccccc34)(Oc3cccc4ccccc34)Oc3cccc4ccccc34)cccc2c1 , what is its reported growth inhibition?
[reply] 2

[ask] # query: growth inhibition of entry CC1(C)CC(=N/O)/C(=N/O)C(=N\NC(N)=S)/C1
[reply] -3

[ask] Endpoint output: growth inhibition of CC(=O)c1cccc([N+](=O)[O-])c1 . Value?
[reply] -3
